target: Prothrombin (Homo sapiens, UniProt P00734); assay: The compound was tested for inhibition of thrombin with a preincubation time of 15 min
measure.name: pIC50
Expect pIC50 as a plain number equal to -log10 of the molar concentration.

Measured pIC50 of `CCC[C@@H](NC(=O)N1C(=O)C(CC)(CC)[C@@H]1Oc1ccc(C(=O)N2CCN(C)CC2)cc1)c1ccc2c(c1)OCO2` : 4.10

###

target: Prothrombin (Homo sapiens); experiment: The compound was tested for inhibition of thrombin with a pre-incubation time of 15 min
Each item that follows carries a reported IC50.
Just the number in µM, nothing appended.

C=CC[C@@H]1C(=O)O[C@H]2CCN(C(=O)OCc3ccccc3)C21 (some centres not stated) = 44.6

Shifting focus to the compound that follows.
Measured IC50 of C=CC[C@H]1C(=O)O[C@H]2CCN(C(=O)OCc3ccccc3)C21 (some centres not stated) : 49

The values you see were collected from ChEMBL document CHEMBL1131127.
